Molecular target: C3b (biotinylated, captured site-specifically on a streptavidin chip) (UniProt P01024)
Test: SPR (Biacore 3000), single-cycle kinetics, biotinylated C3b on streptavidin chip, peptide as analyte, 1:1 Langmuir fit
Bridge positions count the residues as written; N and C are the ends. Square brackets hold non-standard residues; d marks the D form. Ends that are not written are not given here. Trp(1-Me) = Cn1cc(C[C@H](N)C(=O)O)c2ccccc21; NMeI = CC[C@H](C)[C@H](NC)C(=O)O; Sar = CNCC(=O)O
ENDPOINT_NAME: koff (s⁻¹)
Numbers only; they are read as s⁻¹.

Solved cases (2 shown):
- BINDER: "RICV[Trp(1-Me)]QDW[Sar]AHRC[NMeI]-NH2 (disulfide 3-13; N-terminus assumed; SMILES CC[C@H](C)[C@H](NC(=O)[C@@H](N)CCCNC(=N)N)C(=O)N[C@H]1CSSC[C@@H](C(=O)N(C)[C@H](C(N)=O)[C@@H](C)CC)NC(=O)[C@H](CCCNC(=N)N)NC(=O)[C@H](Cc2c[nH]cn2)NC(=O)[C@H](C)NC(=O)CN(C)C(=O)[C@H](Cc2c[nH]c3ccccc23)NC(=O)[C@H](CC(=O)O)NC(=O)[C@H](CCC(N)=O)NC(=O)[C@H](Cc2cn(C)c3ccccc23)NC(=O)[C@H](C(C)C)NC1=O) [Peptide 6: Arg-Ile-[Cys-Val-Trp(Me)-Gln-Asp-Trp-Sar-Ala-His-Arg-Cys]-mIle-NH2]"
  RESULT_NUMBER: 0.0029
- BINDER: "FICV[Trp(1-Me)]QDW[Sar]AHRC[NMeI]-NH2 (disulfide 3-13; N-terminus assumed; SMILES CC[C@H](C)[C@H](NC(=O)[C@@H](N)Cc1ccccc1)C(=O)N[C@H]1CSSC[C@@H](C(=O)N(C)[C@H](C(N)=O)[C@@H](C)CC)NC(=O)[C@H](CCCNC(=N)N)NC(=O)[C@H](Cc2c[nH]cn2)NC(=O)[C@H](C)NC(=O)CN(C)C(=O)[C@H](Cc2c[nH]c3ccccc23)NC(=O)[C@H](CC(=O)O)NC(=O)[C@H](CCC(N)=O)NC(=O)[C@H](Cc2cn(C)c3ccccc23)NC(=O)[C@H](C(C)C)NC1=O) [Peptide 5: Phe-Ile-[Cys-Val-Trp(Me)-Gln-Asp-Trp-Sar-Ala-His-Arg-Cys]-mIle-NH2]"
  RESULT_NUMBER: 0.0033

Now consider the entry below.
Record summary for AICVWQDWGAHRCI (mAla (N-methyl-Ala) at Xaa0; Trp(Me) at position 4; Sar at position 8; mIle at position 13; C-terminal -NH2; cyclic via Cys2-Cys12 disulfide (compstatin position numbering)) [Peptide 13: mAla-Ile-[Cys-Val-Trp(Me)-Gln-Asp-Trp-Sar-Ala-His-Arg-Cys]-mIle-NH2] : reported koff = 0.0034
